# Tested on: plaque forming cell (PFC)
# test description: Immunosuppressive activity: plaque forming cell (PFC) number by Cunningham method in mice injected with sheep red blood cells
# Format: in vivo
# test parameters: 25 mg/kg/day p.o., days 0 to 3; measured day 4
measured quantity: Effects PFC/spleen × 10^-4 (PFC/spleen × 10^-4)

molecule: NC(=O)c1[nH]cnc1OC(=O)C12CC3CC(CC(C3)C1)C2
obs value: 14.19

molecule: NC(=O)c1[nH]cnc1OC(=O)c1ccc(Cl)cc1
obs value: 22.06

molecule: NC(=O)c1[nH]cnc1OC(=O)c1ccccc1 [5-Carbamoyl-1H-imidazole-4-yl benzoate, 5-carbamoyl-1H-imidazol-4-yl benzoate]
obs value: 19.88

molecule: Sc1ncnc2nc[nH]c12 [6-Mercaptopurine, 6-mercaptopurine, reference compound]
obs value: 30.78
